- subject-of-test: STAT3 (Homo sapiens, UniProt P40763)
- Sequence (P40763 2-770): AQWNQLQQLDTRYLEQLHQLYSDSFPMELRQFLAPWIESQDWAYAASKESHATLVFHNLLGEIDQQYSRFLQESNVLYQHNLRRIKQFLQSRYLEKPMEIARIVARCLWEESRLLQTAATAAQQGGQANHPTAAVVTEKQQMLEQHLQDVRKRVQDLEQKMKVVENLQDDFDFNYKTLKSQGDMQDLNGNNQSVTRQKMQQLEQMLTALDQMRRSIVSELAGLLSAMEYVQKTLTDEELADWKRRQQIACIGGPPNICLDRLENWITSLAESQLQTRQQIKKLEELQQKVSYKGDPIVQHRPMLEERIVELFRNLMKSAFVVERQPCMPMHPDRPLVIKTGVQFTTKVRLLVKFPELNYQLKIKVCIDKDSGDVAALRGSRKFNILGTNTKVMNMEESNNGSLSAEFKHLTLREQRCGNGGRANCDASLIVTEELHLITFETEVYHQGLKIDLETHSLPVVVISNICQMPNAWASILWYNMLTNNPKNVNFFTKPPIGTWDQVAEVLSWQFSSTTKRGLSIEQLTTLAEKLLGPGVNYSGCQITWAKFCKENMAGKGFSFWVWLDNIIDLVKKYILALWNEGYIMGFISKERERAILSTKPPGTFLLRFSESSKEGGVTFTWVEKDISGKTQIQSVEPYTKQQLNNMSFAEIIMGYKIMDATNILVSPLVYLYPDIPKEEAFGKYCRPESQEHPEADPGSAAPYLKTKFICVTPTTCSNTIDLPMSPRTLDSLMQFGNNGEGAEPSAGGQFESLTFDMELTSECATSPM
property: pKd
Interpret pKd as the negative base-10 log of the concentration measured in mol/L.

Let me check: `CC(=O)Nc1ccc(O)cc1` , system STAT3 (Homo sapiens, UniProt P40763), measured pKd is 6.22
